Record set: Ki | Beta-secretase 1 (Homo sapiens, UniProt P56817) | literature, multiple sources.
Write the number in nM without appending the unit.

Tested on Beta-secretase 1 (Homo sapiens, UniProt P56817), the item CN1C(=N)N[C@](C)(c2sc(-c3cccc(-c4noc(C5CC5)n4)c3)cc2F)CS1(=O)=O showed Ki equal to 323

Entry COCC(=S)Nc1cc(F)c(F)c([C@]2(C)CS(=O)(=O)N(C)C(=N)N2)c1 ; assay system Beta-secretase 1 (Homo sapiens, UniProt P56817); Ki recorded at 188

Form: item CN1C(=N)N[C@](C)(c2sc3c(-c4cnc(-c5ccc(F)cc5)o4)cccc3c2F)CS1(=O)=O ; test system Beta-secretase 1 (Homo sapiens, UniProt P56817); Ki: 3180

Case CC1(S(C)(=O)=O)CCC(CF)(c2cc(NC(=O)c3cc4c(cn3)OCCCO4)ccc2F)N=C1N (stereo not drawn) , Beta-secretase 1 (Homo sapiens, UniProt P56817), Ki recorded as 4.34

Form: item C[C@@]1(F)C[C@H](F)[C@@](C)(c2cc(NC(=O)c3ccc(F)cn3)ccc2F)N=C1N ; test system Beta-secretase 1 (Homo sapiens, UniProt P56817); Ki: 98

Lab note: molecule CC1(S(=O)(=O)C2CC2)CCC(CF)(c2cc(NC(=O)c3cc4c(cn3)OC(F)(F)CO4)ccc2F)N=C1N (stereo not drawn) tested on Beta-secretase 1 (Homo sapiens, UniProt P56817); recorded Ki was 0.26

Tested on Beta-secretase 1 (Homo sapiens, UniProt P56817): CN=[S@@]1(=O)C[C@@](C)(c2cc(Nc3nccc4nc(OC)cnc34)ccc2F)NC(=N)C1(C)C . Observed Ki: 14

Entry C[C@@]1(F)CC(F)(F)[C@@](C)(c2cc(NC(=O)c3ccc(Cl)cn3)ccc2F)N=C1N , Beta-secretase 1 (Homo sapiens, UniProt P56817) data, Ki value: 62

Let me check: COc1ccc(C(=O)Nc2ccc(F)c([C@]3(C)CN(C)S(=O)(=O)C(C)(C)C(=N)N3)c2)nc1 , system Beta-secretase 1 (Homo sapiens, UniProt P56817), measured Ki is 33

# Ki measured on Beta-secretase 1 (Homo sapiens, UniProt P56817) for item Cc1cccc(N2CC3C(c4ccccc4)(C2)NC(=N)N(C)S3(=O)=O)c1 (racemic) = 1560

Ki on Beta-secretase 1 (Homo sapiens, UniProt P56817) for COc1cccc2cc(-c3csc([C@]4(C)Cc5nc(C6CC6)ncc5C(=N)N4)c3)[nH]c12 is 38.2

Tested system Beta-secretase 1 (Homo sapiens, UniProt P56817); Ki recorded for CN1C(=N)N[C@](C)(c2sc3c(-c4ccc(-c5cn[nH]c5)cc4F)nccc3c2Cl)CS1(=O)=O was 330

Form: item C[C@@]1(c2sc(-c3cncc(F)c3)cc2Cl)CS(=O)(=O)C2(CCOCC2)C(=N)N1 ; test system Beta-secretase 1 (Homo sapiens, UniProt P56817); Ki: 260

Simply: COc1cnc(C(=O)Nc2ccc(F)c([C@]34COC[C@H]3S(=O)(=O)N(C)C(=N)N4)c2)cn1 , Beta-secretase 1 (Homo sapiens, UniProt P56817), Ki = 54.1

Kindly note: Beta-secretase 1 (Homo sapiens, UniProt P56817), NC1=N[C@@](c2cc(NC(=O)c3cnc(C(F)F)cn3)ccc2F)(C(F)F)C(F)(F)CC1 , Ki value reported: 20

Noted Ki for Cc1cn(C)nc1C(=O)Nc1ccc2c(c1)[C@]1(CCO2)CS(=O)(=O)C(C)(C)C(=N)N1 , tested on Beta-secretase 1 (Homo sapiens, UniProt P56817): 15

Query CN1C(=N)N[C@](C)(c2sc(-c3cc(-c4ccccc4)no3)cc2Cl)CS1(=O)=O on Beta-secretase 1 (Homo sapiens, UniProt P56817); Ki returned: 943

Measured Ki (Beta-secretase 1 (Homo sapiens, UniProt P56817)), entry CN1C(=N)N[C@](C)(c2sc3c(-c4ccc(-c5ncco5)cc4)cccc3c2F)CS1(=O)=O : 104

The measured Ki that C#CCOc1ccc(C(=O)Nc2ccc3c(c2)[C@]2(CCC3)CS(=O)(=O)C(C)(C)C(=N)N2)nc1 showed for Beta-secretase 1 (Homo sapiens, UniProt P56817) is 10

Item CCCCN1CC[C@@]2(C1)[C@@](C)(c1cc(NC(=O)c3ccc(F)cn3)ccc1F)NC(=N)N(C)S2(=O)=O was tested on Beta-secretase 1 (Homo sapiens, UniProt P56817); the reported Ki is 2

Let me check: Cc1cc(F)cnc1C(=O)Nc1ccc2c(c1)[C@@]1(C)NC(=N)N(C)S(=O)(=O)[C@H]1CCC2 , system Beta-secretase 1 (Homo sapiens, UniProt P56817), measured Ki is 19

Record NC1=N[C@](CF)(c2cc(NC(=O)c3ccc(Cl)cn3)cc(F)c2F)C(F)(F)CC1 ; system Beta-secretase 1 (Homo sapiens, UniProt P56817); Ki = 22

====

Literature pKi values, system: Beta-secretase 1 (Homo sapiens, UniProt P56817).
On this scale, pKi is minus log10 of a concentration expressed in M (mol/L).

Measured on Beta-secretase 1 (Homo sapiens, UniProt P56817), CC(=O)N1CC2[C@](c3cc(NC(=O)c4ccc(F)cn4)ccc3F)(C1)NC(=N)N(C)S2(=O)=O (mixture of isomers) has a documented pKi of 7.49

The recorded pKi with Beta-secretase 1 (Homo sapiens, UniProt P56817) for CN1C(=N)N[C@](C)(c2cc(-c3cccc(C#N)c3)cs2)CS1(=O)=O was 7.59

Per the reported Beta-secretase 1 (Homo sapiens, UniProt P56817) data, COc1ccc(C(=O)Nc2ccc(F)c([C@]3(C)CC[C@@](F)(CF)C(N)=N3)c2)nc1 has pKi of 7.66

Reading of pKi for C[C@@]1(c2cc(-c3cncc(C#N)c3)ccc2F)CS(=O)(=O)C2(CCCC2)C(=N)N1 with Beta-secretase 1 (Homo sapiens, UniProt P56817): 6.03

pKi value, target or system Beta-secretase 1 (Homo sapiens, UniProt P56817), for CN1C(=N)N[C@](C)(c2sc(-c3nnc(-c4cccc(C#N)c4)o3)cc2Cl)CS1(=O)=O : 5.92

Short answer on Beta-secretase 1 (Homo sapiens, UniProt P56817) for CN1C(=N)N[C@](C)(c2sc3c(-c4ccc(-c5nccn5C)cc4)cccc3c2F)CS1(=O)=O , pKi: 5.25

Summary: NC1=N[C@@]2(c3cc(NC(=O)c4ccc(F)cn4)cc(F)c3F)COC[C@H]2C[C@]1(F)CF , Beta-secretase 1 (Homo sapiens, UniProt P56817), pKi = 6.47

Param item: Cc1nc(C(=O)Nc2ccc(F)c([C@@]3(C)NC(=N)N(C)S(=O)(=O)C34CC4)c2)c(C)o1 ; param system: Beta-secretase 1 (Homo sapiens, UniProt P56817); output pKi: 7.60

Let me check: Cc1nc(C(=O)Nc2ccc(F)c([C@]34COC[C@@]3(F)C[C@@](C)(F)C(N)=N4)c2)co1 , system Beta-secretase 1 (Homo sapiens, UniProt P56817), measured pKi is 7.66

Measured pKi (Beta-secretase 1 (Homo sapiens, UniProt P56817)), entry C[C@@]1(F)CC(F)(F)[C@@](C)(c2cc(NC(=O)c3ccn(C(F)F)n3)ccc2F)N=C1N : 7.15

Form field pKi for item NC1=N[C@](CF)(c2cc(NC(=O)c3ccc(Cl)cn3)ccc2F)C(F)(F)CC1 on Beta-secretase 1 (Homo sapiens, UniProt P56817): 8.24

Fill in: Beta-secretase 1 (Homo sapiens, UniProt P56817) pKi for CN1C(=N)N[C@](C)(c2sc(-c3nnc(-c4ccc(-c5noc(C(F)(F)F)n5)cc4)o3)cc2Cl)CS1(=O)=O = 6.59

pKi value, target or system Beta-secretase 1 (Homo sapiens, UniProt P56817), for C[C@]1(F)C[C@]2(F)COC[C@]2(c2cc(NC(=O)c3ccc(Cl)cn3)ccc2F)N=C1N : 8.19

For Cc1nc(C(=O)Nc2ccc(F)c([C@]3(C)CS(=O)(=O)C4(CCCC4)C(=N)N3)c2)no1 on Beta-secretase 1 (Homo sapiens, UniProt P56817), measured pKi was 7.86

Case Cc1nnc(C(=O)Nc2ccc(F)c([C@@]3(C)N=C(N)[C@@](C)(F)CC3(F)F)c2)o1 , Beta-secretase 1 (Homo sapiens, UniProt P56817), pKi recorded as 5.80

Measured on Beta-secretase 1 (Homo sapiens, UniProt P56817), C[C@@]1(c2cc(NC(=O)c3ccn(C(F)F)n3)ccc2F)CS(=O)(=O)C2(CCCC2)C(=N)N1 has a documented pKi of 7.90

Measured on Beta-secretase 1 (Homo sapiens, UniProt P56817), CN1CCN(c2ccc(-c3cccc4c(F)c([C@]5(C)CS(=O)(=O)N(C)C(=N)N5)sc34)cc2)CC1 has a documented pKi of 5.01

Field pKi (Beta-secretase 1 (Homo sapiens, UniProt P56817)), entry C#CCOc1ccc(C(=O)Nc2ccc(F)c([C@]34CCC[C@H]3S(=O)(=O)N(C)C(=N)N4)c2)nc1 : 8.52

pKi on Beta-secretase 1 (Homo sapiens, UniProt P56817) for COc1ccc(C(=O)Nc2cc(F)c(F)c([C@@]3(CF)N=C(N)CCC3(F)F)c2)nc1 is 8.05

Field pKi (system: Beta-secretase 1 (Homo sapiens, UniProt P56817)) for entry CN1C[C@@](C)(c2cc(NC(=O)c3cnc(OCCF)cn3)ccc2F)NC(=N)C(C)(C)S1(=O)=O = 7.28

Field pKi (system: Beta-secretase 1 (Homo sapiens, UniProt P56817)) for entry Cc1cc(C#N)cnc1C(=O)Nc1ccc2c(c1)[C@]1(COC2)CS(=O)(=O)C(C)(C)C(=N)N1 = 8.22
